Data origin: the Immune Epitope Database (IEDB)

- ASSAYED_TARGET: HLA-B*58:01
- EXPERIMENTAL_PROTOCOL: IEDB peptide-MHC binding, purified MHC/direct/fluorescence; filed as Kd, often an IC50 or EC50 that approximates it; bounds were set here for any values at or beyond the usual limits of such assays
- RUN_PARAMETERS: source organism: West Nile virus
MEASURED_ATTRIBUTE: Kd

Q: // fetch Kd for AHYEEDVNL ; system: HLA-B*58:01
Result: ≥ 20 µM

Q: // fetch Kd for LVKTESWIL ; system: HLA-B*58:01
Result: ≥ 20 µM

Q: // fetch Kd for YTMDGEYRL ; system: HLA-B*58:01
Result: ≥ 20 µM

###

- ASSAYED_TARGET: HLA-A*11:01
- EXPERIMENTAL_PROTOCOL: IEDB peptide-MHC binding, purified MHC/competitive/radioactivity; filed as Kd, often an IC50 or EC50 that approximates it; bounds were set here for any values at or beyond the usual limits of such assays
- RUN_PARAMETERS: source organism: SARS coronavirus Tor2
For each record, write down the corresponding pKd.
In simple prose, pKd is minus the logarithm base ten of a concentration in moles per litre.

Q: Quickly give me recorded pKd for AQPLPQRQK
Result: 6.06

Q: Quickly give me recorded pKd for VVQRCASNK
Result: 6.19

Q: Quickly give me recorded pKd for SASAFFGMSR
Result: 7.92

Q: Quickly give me recorded pKd for LFCLLNRYFR
Result: 6.26

Q: Quickly give me recorded pKd for FLYLYALIY
Result: 4.79

Q: Quickly give me recorded pKd for SLRCGACIRR
Result: 6.02

Q: Quickly give me recorded pKd for ASGNLLLDK
Result: 7.53

Q: Quickly give me recorded pKd for IIMRCWLCWK
Result: 9.37

Q: Quickly give me recorded pKd for MQTMLFTMLR
Result: 7.95

Q: Quickly give me recorded pKd for LLFQLCTFTK
Result: 7.79

Q: Quickly give me recorded pKd for TAFQHQNSKK
Result: 6.86

Q: Quickly give me recorded pKd for SQASSRSSSR
Result: 5.82

Q: Quickly give me recorded pKd for AVHECFVKR
Result: 6.36

Q: Quickly give me recorded pKd for VVSTGYHFR
Result: 8.07

Q: Quickly give me recorded pKd for NQLESKVSGK
Result: 4.83

Q: Quickly give me recorded pKd for SVKSFEIDK
Result: 6.86

Q: Quickly give me recorded pKd for AMDEFIQRY
Result: 5.49

Q: Quickly give me recorded pKd for QMAPVSAMVR
Result: 5.97

Q: Quickly give me recorded pKd for RLISMMGFK
Result: 7.65

Q: Quickly give me recorded pKd for MSYYCKSHK
Result: 7.10

Q: Quickly give me recorded pKd for NAFNCTFEY
Result: 7.70

###

- ASSAYED_TARGET: HLA-B*51:01
- EXPERIMENTAL_PROTOCOL: IEDB peptide-MHC binding, purified MHC/competitive/fluorescence; filed as Kd, often an IC50 or EC50 that approximates it; bounds were set here for any values at or beyond the usual limits of such assays
- RUN_PARAMETERS: source organism: Yersinia pestis Nepal516
MEASURED_ATTRIBUTE: pKd
In simple prose, pKd is minus the logarithm base ten of a concentration in moles per litre.

Q: Quickly give me recorded pKd for FPIKRISAV
Result: 6.57
